Numbers sourced from paper PMC2892007.

Provide the reported kon of each item.
Target: T1, Gelatin-binding domain of human plasma fibronectin (human)
T1 construct: also called GBD; source: bought: Sigma-Aldrich
Test: SPR
Conditions: both partners purified
Give bare numbers, in M⁻¹ s⁻¹.

Binder	kon (M⁻¹ s⁻¹)
LigAVar13 (domain or fragment, biotin (in the ELISA)) ITISLSSISKTKGSTHQFKATGKFENGAEIDLTELVTWSSSNPTVVSISNVDDERGLATALSVGSSKISVDYNSISSSIDFEVTPEILASIKTEP	510
LigAVar7'-8 (domain or fragment, biotin (in the ELISA)) LTVSNTNAKRGLGSTLKQGTVKVTASMGGIEDSVDFTVTQATLTSIEVSPTRASIAKGMTQKFTATGIFTDHSKKNITEQVTWKSSSKALSMLNAPGEEGTGKAIAVGKHYYYCNLRKTFRENRYYRYSRNSYFN	750

Could you now consider this next binder?
Q: So what does the record say about kon for LigAVar10 (domain or fragment, biotin (in the ELISA)) LSVTAAELIEIVLDPTSSHKAKGLTENFKATGVFTDNSTKDITDQVTWKSSKTAYAKISNATGSKRVVNAISKGTSHISATLGSISSANATFQVTPAKVV ?
Ans: 1190
